# test_summary: Human plasma half-life assay
# Assay type: in vitro ADME
# applied_conditions: 37° C., LC-MS, read-out: Human Plasma T½ (converted)
Non-standard residues stand in square brackets, D forms with d. No end group written: not given here. Nle = CCCC[C@H](N)C(=O)O; Ac5c = NC1(C(=O)O)CCCC1; Aib = CC(C)(N)C(=O)O
measured_property: half-life at 0.1 mg/ml (h)
Answer format: numeric, h implied, no suffix.

Supply reported half-life at 0.1 mg/ml belonging to this substance: YAEGTFISDY[Ac5c]IAMDKIHQQDFVNWLLAQKGKKNDWKHNITQN-OH [Example 4, (A5c^11, Asn^43)hGIP(1-43)-OH] 7.2

Supply reported half-life at 0.1 mg/ml belonging to this substance: YAEGTFISDY[Ac5c]IAMDKIHQQDFVNWLLAQKGKKNDWKHNI[Ac5c]Q-OH [Example 1, (A5c^11, 41)hGIP(1-42)-OH] 11.4

Supply reported half-life at 0.1 mg/ml belonging to this substance: YAEGTFISDY[Ac5c]IAMDKIHQQDFVNWLLAQKGCKNDWKHNI[Ac5c]Q-NH2 [Example 31, (A5c^11, 41, Cys^32)hGIP(1-42)-NH2] 26.6

Supply reported half-life at 0.1 mg/ml belonging to this substance: YAEGTFISDY[Ac5c]IAMDKIHQQDFVNWLLAQKGKKNDWKHNI[Ac5c]QC-NH2 [Example 33, (A5c^11, 41, Cys^43)hGIP(1-43)-NH2] 15.8

Supply reported half-life at 0.1 mg/ml belonging to this substance: YAEGTFISDYSI[Aib][Nle]DKIHQQDFVNWLLAQKGKKNDWKHN[Ac5c]TQ-OH [Example 6, (Aib^13, Nle^14, A5c^40)hGIP(1-42)-OH] 7.8

Supply reported half-life at 0.1 mg/ml belonging to this substance: YAEGTFISDYSI[Aib]MDKIHQQDFVNWLLAQKGKKNDWKHNITQW-OH [Example 12, (Aib^13, Trp^43)hGIP(1-43)-OH] 6.9

====

# subject_of_test: human recombinant GIP receptor (Homo sapiens)
# Construct: expressed in transfected cells; host or cells: CHO-K1 clonal cells (membrane preparation)
# Sequence (P48546 22-466): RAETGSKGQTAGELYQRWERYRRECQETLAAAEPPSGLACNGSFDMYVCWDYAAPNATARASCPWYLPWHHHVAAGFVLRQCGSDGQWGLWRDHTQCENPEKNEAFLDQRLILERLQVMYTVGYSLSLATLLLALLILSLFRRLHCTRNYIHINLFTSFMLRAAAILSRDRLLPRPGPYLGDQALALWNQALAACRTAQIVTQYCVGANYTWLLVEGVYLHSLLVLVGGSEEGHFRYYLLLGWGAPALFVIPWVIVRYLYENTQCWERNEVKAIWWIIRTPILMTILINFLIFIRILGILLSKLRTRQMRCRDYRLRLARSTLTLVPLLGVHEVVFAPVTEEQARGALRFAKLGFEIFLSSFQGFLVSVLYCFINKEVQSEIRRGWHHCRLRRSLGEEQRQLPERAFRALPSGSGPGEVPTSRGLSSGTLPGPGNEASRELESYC
# test_summary: In vitro hGIP receptor binding assay
Non-standard residues stand in square brackets, D forms with d. No end group written: not given here. *: point of attachment. Myristoyl = CCCCCCCCCCCCCC(=O)*; Ac6c = NC1(C(=O)O)CCCCC1; Orn = NCCC[C@H](N)C(=O)O
measured_property: Ki (nM)
Answer format: numeric, nM implied, no suffix.

Supply reported Ki belonging to this substance: YAEGTF[Ac6c]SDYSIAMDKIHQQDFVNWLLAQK[Orn](Myristoyl)KKNDWKHNITQ-OH [Example 19] 18

====

# Tested on: Sprague Dawley rats
# test_summary: Determination of in vivo insulin secretion in normal rats
# Parameters: species or system rat
# applied_conditions: Table 3; fasted male Sprague Dawley rats, compound by cannula with glucose 1 g/kg, blood samples to 20 min
Non-standard residues stand in square brackets, D forms with d. No end group written: not given here. Ac5c = NC1(C(=O)O)CCCC1; Aib = CC(C)(N)C(=O)O
measured_property: AUC (total insulin secretion)
Give a plain numeric answer without units written out.

Supply reported AUC (total insulin secretion) belonging to this substance: YAEGTFISDYSI[Aib]MDKIHQQDFVNWLLAQKGKKNDWKHN[Ac5c]TQ-OH [Example 7, (Aib^13, A5c^40)hGIP(1-42)-OH] 176.90

Supply reported AUC (total insulin secretion) belonging to this substance: YAEGTFISDY[Ac5c]IAMDKIHQQDFVNWLLAQKGKKNDWKHNI[Ac5c]Q-OH [Example 1, (A5c^11, 41)hGIP(1-42)-OH] 304.92

Supply reported AUC (total insulin secretion) belonging to this substance: YAEGTFISDY[Ac5c]IAMDKIHQQDFVNWLLAQKGKKNDWKHNITQN-OH [Example 4, (A5c^11, Asn^43)hGIP(1-43)-OH] 265.11

meta.source: patent US9072703B2
